Reported values of self-cleavage for individual entries
B1: LINE1-full (parent)
chain: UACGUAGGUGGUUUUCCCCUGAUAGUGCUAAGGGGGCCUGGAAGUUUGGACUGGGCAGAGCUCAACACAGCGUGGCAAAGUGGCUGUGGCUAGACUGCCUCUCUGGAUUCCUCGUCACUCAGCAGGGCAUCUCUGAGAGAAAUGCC

Variants of: B1
ASSAY PROCEDURE: self-cleavage, relative activity (ratio to wild type); higher = more cleavage; in vitro, sequencing; the parent is a self-cleaving ribozyme

Asked: What value of measured self-cleavage is listed for U85A A129U ?
Given back: 0.12

Asked: Fill in the blank: the reported self-cleavage of U104A C146U is ____.
Given back: 1.35

Asked: For the variant shown here, U39A G122A , give the reported self-cleavage.
Given back: 0.54

Asked: Query: self-cleavage; subject: U9A U29A
Given back: 0.79

Asked: What measured self-cleavage goes with A2G U5C ?
Given back: 1.41

Asked: Which measured self-cleavage value corresponds to U20G U108C ?
Given back: 1.97
